measuredTarget: Piezo1 (Homo sapiens, UniProt Q92508)
Sequence (Q92508 whole entry): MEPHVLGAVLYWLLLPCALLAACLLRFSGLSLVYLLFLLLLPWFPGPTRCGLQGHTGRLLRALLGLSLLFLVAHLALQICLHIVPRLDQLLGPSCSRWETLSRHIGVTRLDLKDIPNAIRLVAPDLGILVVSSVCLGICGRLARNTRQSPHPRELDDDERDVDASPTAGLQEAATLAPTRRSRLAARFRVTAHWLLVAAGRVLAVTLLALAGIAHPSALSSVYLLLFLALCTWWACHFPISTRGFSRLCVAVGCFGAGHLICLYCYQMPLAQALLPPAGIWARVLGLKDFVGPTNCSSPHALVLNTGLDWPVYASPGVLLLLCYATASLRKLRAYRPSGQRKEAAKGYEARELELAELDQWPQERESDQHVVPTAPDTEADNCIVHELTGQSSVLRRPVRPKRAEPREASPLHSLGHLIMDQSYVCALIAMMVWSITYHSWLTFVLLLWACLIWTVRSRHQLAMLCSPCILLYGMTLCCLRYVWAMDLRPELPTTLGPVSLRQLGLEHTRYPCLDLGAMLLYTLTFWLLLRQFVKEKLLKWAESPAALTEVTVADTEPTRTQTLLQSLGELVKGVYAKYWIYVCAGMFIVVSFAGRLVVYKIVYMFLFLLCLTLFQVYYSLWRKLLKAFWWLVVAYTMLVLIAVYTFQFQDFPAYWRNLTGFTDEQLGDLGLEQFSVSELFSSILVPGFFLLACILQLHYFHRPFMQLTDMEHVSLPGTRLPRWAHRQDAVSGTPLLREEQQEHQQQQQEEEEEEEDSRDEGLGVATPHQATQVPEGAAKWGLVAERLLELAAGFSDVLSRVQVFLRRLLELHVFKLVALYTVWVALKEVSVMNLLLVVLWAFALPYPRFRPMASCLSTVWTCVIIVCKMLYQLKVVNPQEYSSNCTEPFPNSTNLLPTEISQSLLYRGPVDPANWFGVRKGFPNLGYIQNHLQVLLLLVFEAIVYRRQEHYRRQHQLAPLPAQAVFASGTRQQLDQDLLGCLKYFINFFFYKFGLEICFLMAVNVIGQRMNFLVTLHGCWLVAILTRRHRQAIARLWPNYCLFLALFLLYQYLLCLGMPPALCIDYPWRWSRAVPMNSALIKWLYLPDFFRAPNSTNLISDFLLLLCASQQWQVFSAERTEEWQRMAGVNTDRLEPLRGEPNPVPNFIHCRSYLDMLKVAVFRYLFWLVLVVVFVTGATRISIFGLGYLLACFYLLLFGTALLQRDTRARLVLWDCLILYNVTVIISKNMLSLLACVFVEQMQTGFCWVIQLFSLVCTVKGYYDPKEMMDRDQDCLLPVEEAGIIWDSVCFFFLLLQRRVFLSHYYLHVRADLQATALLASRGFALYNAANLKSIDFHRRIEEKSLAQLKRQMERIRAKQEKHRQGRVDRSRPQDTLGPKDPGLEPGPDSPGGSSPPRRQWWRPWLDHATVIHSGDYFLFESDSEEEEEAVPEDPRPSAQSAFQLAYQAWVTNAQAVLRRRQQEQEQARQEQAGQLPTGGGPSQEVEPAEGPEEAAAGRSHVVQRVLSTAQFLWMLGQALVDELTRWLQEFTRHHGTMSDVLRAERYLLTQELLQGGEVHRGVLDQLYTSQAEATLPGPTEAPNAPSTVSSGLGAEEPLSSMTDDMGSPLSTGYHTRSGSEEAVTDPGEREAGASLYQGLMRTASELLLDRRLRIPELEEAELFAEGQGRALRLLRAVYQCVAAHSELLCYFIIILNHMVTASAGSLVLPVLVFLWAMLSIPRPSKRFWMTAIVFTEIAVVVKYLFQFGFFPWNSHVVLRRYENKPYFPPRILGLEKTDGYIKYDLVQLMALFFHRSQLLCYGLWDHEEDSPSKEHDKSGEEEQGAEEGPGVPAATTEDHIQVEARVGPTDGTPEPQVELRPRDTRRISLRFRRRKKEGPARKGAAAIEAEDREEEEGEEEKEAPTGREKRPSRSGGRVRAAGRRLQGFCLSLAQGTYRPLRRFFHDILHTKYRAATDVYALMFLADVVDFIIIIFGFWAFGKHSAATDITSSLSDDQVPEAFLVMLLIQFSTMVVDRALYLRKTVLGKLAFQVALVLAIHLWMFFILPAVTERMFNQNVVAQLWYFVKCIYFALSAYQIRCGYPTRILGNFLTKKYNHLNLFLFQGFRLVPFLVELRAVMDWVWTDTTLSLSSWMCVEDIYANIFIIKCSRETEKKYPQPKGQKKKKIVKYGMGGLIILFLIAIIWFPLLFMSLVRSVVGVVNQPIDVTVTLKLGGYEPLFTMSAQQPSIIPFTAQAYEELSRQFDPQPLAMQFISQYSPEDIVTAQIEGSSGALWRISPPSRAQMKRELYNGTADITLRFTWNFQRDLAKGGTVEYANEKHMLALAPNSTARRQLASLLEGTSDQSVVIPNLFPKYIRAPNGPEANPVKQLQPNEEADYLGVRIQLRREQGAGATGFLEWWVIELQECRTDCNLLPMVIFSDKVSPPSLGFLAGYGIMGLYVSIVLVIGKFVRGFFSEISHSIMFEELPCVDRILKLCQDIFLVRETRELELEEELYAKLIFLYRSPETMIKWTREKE
methodSummary: inhibition of […] Yoda1-evoked Ca2+ entry in Piezo1 T-REx HEK […] cells; reversible; also Tl+ flux and HUVECs (IC50 […])
pIC50: −log10 of the molar value.

{"structureNotation": "Clc1cccc(Cl)c1CSc1nnc(-c2ccc[nH]2)o1", "pIC50": 5.89}

* * *

measuredTarget: Piezo1 (Homo sapiens, UniProt Q92508)
methodSummary: intracellular Ca2+ (fura-2) in Piezo1 T-REx HEK […] cells; no response in cells without Piezo1; EC50 […] in HUVECs

{"structureNotation": "Clc1cccc(Cl)c1CSc1nnc(-c2cnccn2)s1", "measuredTarget": "Piezo1 (Homo sapiens, UniProt Q92508)", "EC50, nM": 2510}

meta.source: paper PMC5913400
